- measurement target: Cytochrome P450 2C19 (Homo sapiens)
- assay: qHTS Assay for Inhibitors and Substrates of Cytochrome P450 2C19 (AID 899); note: nearly all actives have a fitted effect of over 60% in size
- measurement setup: recombinant CYP2C19, luciferin-H EGE luminescence; series mostly up to 11.4 µM
Inconclusive results are not listed. Activity calls are given as the source filed them. Calls come from the whole dose curve; as a rule, active = well fitted inhibition curve with a large enough effect; inconclusive = small, poorly fitted or top-dose-only effect; inactive = no such curve, though single readings can be large or run the other way.
Choose the fitting class; nothing outside 1 = active, -1 = inactive is accepted.

query_smiles=CSC([N-]/N=C/c1cccc(C)n1)=[S]=[Cu].CS[C@H]([S-])[N-]/N=C/c1cccc(C)n1 classification=1
query_smiles=C[Se]C[C@@H](N)C(=O)O classification=-1
query_smiles=O=[As](O)(O)c1ccc2nc3cc([As](=O)(O)O)ccc3nc2c1 classification=-1
query_smiles=Nc1ccc(S(=O)(=O)c2ccc(NCN3C(=O)NC(=O)C(=O)C3=O)cc2)cc1 classification=-1

-- ask Hi team, can someone confirm the assay call for `Cc1ccc(OP(=O)(Oc2ccc(C)cc2)N2C=Cc3ccccc3[C@H]2C#N)cc1` ?
-- reply 1

-- ask Hi team, can someone confirm the assay call for `COc1cc2cc(c1Cl)N(C)C(=O)C[C@H](OC(=O)C(C)C)[C@]1(C)O[C@@H]1[C@@H](C)[C@H]1C[C@](O)(NC(=O)O1)[C@@H](OC)/C=C\C=C(\C)C2` ?
-- reply -1

-- ask Hi team, can someone confirm the assay call for `CC(=O)c1c(O)c(C)c(O)c(Cc2c(O)c3c(c(C(=O)/C=C\c4ccccc4)c2O)OC(C)(C)C=C3)c1O` ?
-- reply 1

-- ask Hi team, can someone confirm the assay call for `C[C@@H](O)CN(CCN(C[C@@H](C)O)C[C@@H](C)O)C[C@@H](C)O.O=[N+]([O-])O.[Cu]` ?
-- reply 1

-- ask Hi team, can someone confirm the assay call for `NNc1c(C(N)=O)c2c(N)ncnc2n1[C@@H]1O[C@H](CO)[C@@H](O)[C@@H]1O` ?
-- reply -1
